Test system: SF-539 CNS
protocol: NCI tumour cell line growth inhibition, 48 h
Below: a set of entries, each annotated with reported TGI.

Some entries whose results are on file:
compound: O=C(Nc1ccc(Nc2ccc(NC(=O)c3ccccc3)c3c2C(=O)c2ccccc2C3=O)c2c1C(=O)c1ccccc1C2=O)c1ccccc1
study system: SF-539 CNS
reported result: > 100 µM
--
compound: CCOC(=O)/C1=C(\C)N(Cc2ccccc2)C(=O)c2ccccc2C(=O)c2c(OC(C)=O)ccc(OC(C)=O)c21
study system: SF-539 CNS
reported result: > 100 µM
--
compound: C[C@H]1[C@H]2[C@H](C[C@@]3(C)C4=CC[C@H]5C(C)(C)[C@@H](OC6OCC(O)C(O)C6O)CC[C@@]56C[C@@]46CC[C@]23C)O[C@@]2(O)[C@@H]1OC(C)(C)[C@H]2O (some centres undefined)
study system: SF-539 CNS
reported result: 6.88 µM
--
compound: O=C(CNc1ccc([N+](=O)[O-])cc1)Nn1c(-c2ccccc2)nc2ccccc2c1=O
study system: SF-539 CNS
reported result: 6.61 µM
--
compound: O=C1NC(=NCCc2ccccc2F)S/C1=C\c1ccc2ncccc2c1
study system: SF-539 CNS
reported result: > 25 µM
--
compound: C#CCC(O)c1ccc(OC)c(OCc2ccccc2)c1 (centres undefined)
study system: SF-539 CNS
reported result: > 100 µM

The compound listed as COC1(OC)CCC2(C)OC(c3ccccc3)C1O2 (centres undefined) has a reported TGI of > 100 µM

Item: c1ccc(C2(c3cc4ccccc4[nH]3)OCCO2)nc1 | TGI: > 100 µM

The value of TGI measured for the compound COc1cccc(N2C(=N)/C(=C3\Nc4ccccc4S3)CC2=O)c1 turned out to be > 100 µM

----------
Item-by-item account of TGI
Tested on: NCI-H522 lung
protocol: NCI tumour cell line growth inhibition, 48 h
Answer in µM, number only, no unit symbol.

compound: COc1ccc(C(=O)C(c2ccc(OC)cc2)C2(O)C(=O)Nc3c(Cl)cc(Cl)cc32)cc1 (centres undefined)
observable: TGI
reported result: 35.2

So for CCCCCCCCCCCCCCCC(=O)OCC1OC(OCCCC)[C@H](O[C@@H]2OC(C)C(OC(=O)CCC)C(O)C2O)C(O)C1O (some centres undefined) , the logged TGI turned out to be 46.7

----------
Test system: NCI-H226 lung
protocol: NCI tumour cell line growth inhibition, 48 h
Listed here: items and their measured TGI.

Some solved cases for reference:
compound: CN1CCC(=C(c2ccc(Cl)cc2)c2ccccn2)CC1
TGI: > 100 µM
--
compound: C#CC(O)/C=C/C(O)CCCC(O)CC#CC(O)C#CCCCCC(O)/C=C/CCCCCC(=O)CCCCCCCCCCCCCC(O)C(O)C#CC(=O)O (stereo not given)
TGI: > 25 µM
--
compound: CCN(CC)CCOc1ccc2c(-c3ccccc3)c(-c3ccc(OC)cc3)c(=O)oc2c1
TGI: 32.5 µM
--
compound: Cc1ccc2c(-c3ccnc(Nc4cccc(C(F)(F)F)c4)n3)c(-c3ccccc3)nn2n1
TGI: 17 µM

Now examine the next entry.
Measured TGI for this entry C/C(=C\CNc1ncnc2c1ncn2C1CCCCO1)COP(=O)(O)O (stereo not given) on NCI-H226 lung: > 100 µM

----------
Each record here notes measured TGI.
Tested on: SF-539 CNS
protocol: NCI tumour cell line growth inhibition, 48 h

compound: CCN(CC)Cc1cc(Nc2ccnc3ccc(OC)cc23)ccc1O
reported result: 4.84 µM
//
compound: COc1c(CC(C)=O)c2ccccc2n1C(C)=O
reported result: > 100 µM
//
compound: C=CCc1cc(O)ccc1O
reported result: 70.2 µM
//
compound: Cn1c(=O)oc2cc(C(O)CN3CCN(Cc4ccc5c(c4)OCO5)CC3)ccc21 (stereo unspecified)
reported result: > 100 µM
//
compound: c1ccc(CN2C3C4N(Cc5ccccc5)C2C2N(Cc5ccccc5)C(C(N2Cc2ccccc2)N4Cc2ccccc2)N3Cc2ccccc2)cc1
reported result: > 100 µM

Query compound follows.
# TGI (compound: C=CCc1cc(OC)c(O)c(C(=O)/C=C/c2ccc(OC)c(OC)c2)c1 ) is 48.1 µM

----------
System: MDA-MB-231 breast
protocol: NCI tumour cell line growth inhibition, 48 h; in the data active = GI50 below about 0.43 µM; inactive = the rest
Returns: one label drawn from YES (active), NO (inactive)

compound: CC(C)(Oc1cccc(N2CCC[C@@H](C(=O)N(Cc3ccc(-c4cn[nH]c4)cc3)C3CC3)C2)c1)C(=O)N1CCNCC1
assigned label: NO

Dear all, I need the recorded test outcome for CC(=O)CCC[C@@H](C)[C@@H]1O[C@H]([C@@]2(C)CCC(=O)O2)CC2[C@H]1OC(=O)C21CC1 (stereo not given in full) , thank you.
NO

Assay outcome for N#Cc1ncc(-c2ccc(C(F)(F)F)cc2)c(NC2CCCCCC2)n1 : what was it?
NO

----------
Test system: OVCAR-4 ovarian
protocol: NCI tumour cell line growth inhibition, 48 h
observable: log10 of TGI (log10 of the value in µM)
Scale: log10; quantity: TGI; unit before log: µM

Sample answers from the record:
compound: Nc1ccc(C2(c3ccc(N)cc3)C3CC4CC(C3)CC2C4)cc1
study system: OVCAR-4 ovarian
log10 of TGI: 1.51
//
compound: CC(=O)OC1CCn2c1nc1c2C(=O)C=C(N2CC2)C1=O (stereo not given)
study system: OVCAR-4 ovarian
log10 of TGI: -0.64
//
compound: C[Si](C)(C)CCOCN(C(=O)C1=CCC2(CC1)OCCO2)c1ccccc1I
study system: OVCAR-4 ovarian
log10 of TGI: 1.66
//
compound: Cc1cc2c(C(C)C)c(O)c(O)c(/C=N/O)c2c(O)c1-c1c(C)cc2c(C(C)C)c(O)c(O)c(/C=N/O)c2c1O
study system: OVCAR-4 ovarian
log10 of TGI: 0.99
//
compound: O=C(O[C@H](/C=C/c1ccccc1)P1(=O)N(Cc2ccccc2)[C@H]2CCCC[C@@H]2N1Cc1ccccc1)c1ccccc1
study system: OVCAR-4 ovarian
log10 of TGI: 0.79
//
compound: COc1cccc(N2C(=N)/C(=C3\Nc4ccccc4S3)CC2=O)c1
study system: OVCAR-4 ovarian
log10 of TGI: 1.86
//
compound: Fc1ccc(C2CC(c3cccc(Nc4ccncc4)c3)=NN2c2ccccc2)cc1 (stereo not given)
study system: OVCAR-4 ovarian
log10 of TGI: 0.49

// moving on: another record for log10 of TGI
Measured log10 of TGI, COc1cc2c(SCCN(C)C)nc3ccccc3c2c2ccccc12 : 0.96

----------
System: UACC-62 melanoma
protocol: NCI tumour cell line growth inhibition, 48 h
observable: GI50

compound: CCN(CC)Cc1cc(Nc2ccnc3ccc(OC)cc23)ccc1O
study system: UACC-62 melanoma
reported result: 5.78 µM
//
compound: c1ccc(C2=Nc3ccccc3N3CNN=C23)cc1
study system: UACC-62 melanoma
reported result: > 100 µM
//
compound: O=C(NNC1=NS(=O)(=O)c2ccccc2N1c1ccccc1)c1cnccn1
study system: UACC-62 melanoma
reported result: > 100 µM
//
compound: CN1CCN(CCCCCOc2cc(O)c3c(=O)cc(-c4ccccc4)oc3c2)CC1
study system: UACC-62 melanoma
reported result: 1.86 µM
//
compound: CCOC(=O)C(Cc1ccccc1)n1c(O)c(/C=N/c2ncc(Cc3ccc(Cl)cc3Cl)s2)sc1=S (centres undefined)
study system: UACC-62 melanoma
reported result: 1.63 µM

Reported GI50 for CCN(CC)CCOc1ccc2c(-c3ccccc3)c(-c3ccc(OC)cc3)c(=O)oc2c1 was 3.82 µM

Kindly note the recorded GI50 for Cc1ccc2c(-c3ccnc(Nc4cccc(C(F)(F)F)c4)n3)c(-c3ccccc3)nn2n1 , which is 6.38 µM

Sample Cc1c(Br)c(Br)c2c3c1nc(N1CCNCC1)n3CCC2 ; GI50 observed: 1.62 µM

Recorded result, N#C/C(=C\c1ccc(O)c(O)c1)C(=O)NCc1cccc(C(F)(F)F)c1 , GI50: 10.2 µM

----------
System: NCI-H522 lung
protocol: NCI tumour cell line growth inhibition, 48 h
observable: TGI (µM)
Number only, in µM; omit the unit.

molecular string: CCN(CC)Cc1cc(Nc2ccnc3ccc(OC)cc23)ccc1O
TGI [µM]: 5.61

Value of measured TGI for the entry Oc1c(Cl)cc(Cl)c(Cl)c1Cc1c(O)c(Cl)cc(Cl)c1Cl : 9.66

Documented TGI of Oc1ccc(/C=N/NC(=S)Nc2ccccc2)nc1 : 39.8

The molecule identified as CC(C)(Oc1cccc(N2CCC[C@@H](C(=O)N(Cc3ccc(-c4cn[nH]c4)cc3)C3CC3)C2)c1)C(=O)N1CCNCC1 registered its TGI at 26

For this molecule ( C=C(CC)C(=O)c1ccc(OCC(=O)O)c(Cl)c1Cl ), measured TGI is 29.6

----------
System: KM12 colon
protocol: NCI tumour cell line growth inhibition, 48 h; in the data active = GI50 below about 0.43 µM; inactive = the rest
Reply using exactly one outcome from yes (1) (active), no (0) (inactive)

Consider the following illustrative entries.
compound: CN(C)C/C=C/C(=O)Nc1ccc(C(=O)Nc2cccc(Nc3ncc(Cl)c(-c4c[nH]c5ccccc45)n3)c2)cc1
study system: KM12 colon
assigned label: yes (1)
//
compound: CN1C(=O)[C@@H](CC2CCCC2)N(C2CCCC2)c2nc(Nc3cc(Cl)c(O)c(Cl)c3)ncc21
study system: KM12 colon
assigned label: no (0)
//
compound: Cn1cc(Nc2nccc(-c3ccc4c(c3)CN(C3COC3)CC[C@H]4NC(=O)c3cn(C(C)(C)C)nn3)n2)cn1
study system: KM12 colon
assigned label: no (0)
//
compound: c1ccc(C2=Nc3ccccc3N3CNN=C23)cc1
study system: KM12 colon
assigned label: no (0)
//
compound: CC(=O)NC(CCc1ccc(Cl)c(Cl)c1)c1cccc(O)c(=O)c1 (stereo unspecified)
study system: KM12 colon
assigned label: no (0)

API: the following record is the query input.
Per the records of this test, what outcome belongs to COc1cccc(N2C(=N)/C(=C3\Nc4ccccc4S3)CC2=O)c1 ?
no (0)
